- protocolDetails: PK characteristics in humans (plasma, LC/MS/MS)
- Assay type: in vivo, human
- assaySetup: human, plasma, oral, 400 mg, steady state, 400 QD mg, n=2, mean, cancer patients; read-out: Cmax
- Description: A pharmaceutical formulation of the disclosure comprising the active ingredient N-(3-(2-(6-amino-4-(trifluoromethyl)pyridin-3-yl)-4-morpholinopyrido[3,2-d]pyrimidin-6-yl)-2-fluorophenyl)-3-fluoropropane-1-sulfonamide was evaluated for safety/tolerability and preliminary efficacy in eligible human subjects with advanced solid tumors, and the pharmacokinetic (PK) profile of the active ingredient was investigated for each subject. Eligibility criteria for inclusion in this study included: […]
propertyMeasured: Cmax (ng/mL)

| moleculeSmiles | observed |
| --- | --- |
| Nc1cc(C(F)(F)F)c(-c2nc(N3CCOCC3)c3nc(-c4cccc(NS(=O)(=O)CCCF)c4F)ccc3n2)cn1 | 2850 |

src = patent US10695296B2
